Parameter EC50: see the listing below.
# experimental-system: T1, human LAG3, full length, stably expressed on cells (human, UniProt P18627 23-525)
# T1 construct: whole, on cells; also called CHOK1-human LAG3
# T1 sequence (looked up): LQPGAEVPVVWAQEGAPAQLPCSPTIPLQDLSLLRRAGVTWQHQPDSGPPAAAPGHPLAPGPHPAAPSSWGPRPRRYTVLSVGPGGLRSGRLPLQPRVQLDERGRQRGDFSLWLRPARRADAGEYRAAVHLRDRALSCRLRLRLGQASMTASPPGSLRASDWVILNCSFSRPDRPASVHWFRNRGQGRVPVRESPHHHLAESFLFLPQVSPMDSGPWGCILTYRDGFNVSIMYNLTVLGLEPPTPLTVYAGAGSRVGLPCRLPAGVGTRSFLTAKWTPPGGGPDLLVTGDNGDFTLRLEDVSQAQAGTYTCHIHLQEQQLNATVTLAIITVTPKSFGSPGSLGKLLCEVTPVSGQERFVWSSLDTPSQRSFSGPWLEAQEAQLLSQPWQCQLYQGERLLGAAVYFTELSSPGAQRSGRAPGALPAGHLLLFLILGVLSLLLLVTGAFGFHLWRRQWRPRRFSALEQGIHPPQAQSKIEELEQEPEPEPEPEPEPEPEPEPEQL
# assay-text: FACS on 293F cells stably expressing human LAG3
Only the number, expressed in nM, is required.

binder	EC50, nM
021c (antibody, human IgG4, V domains shown, human IgG4 S228P / kappa chimeric antibody; also called chimeric antibody 021; not shown: human kappa light chain constant region (pcDNA3.4-hIgGk vector)) VH: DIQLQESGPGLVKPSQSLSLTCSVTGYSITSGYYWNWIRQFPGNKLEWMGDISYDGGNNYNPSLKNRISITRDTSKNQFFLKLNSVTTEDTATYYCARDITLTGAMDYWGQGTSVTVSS VL: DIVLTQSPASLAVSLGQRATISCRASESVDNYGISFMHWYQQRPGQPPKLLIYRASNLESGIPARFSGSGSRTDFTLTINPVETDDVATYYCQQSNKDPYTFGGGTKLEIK	15.6

API: the following record is the query input.
Data request: Recorded EC50 of 057c (antibody, human IgG4, V domains shown, human IgG4 S228P / kappa chimeric antibody; also called chimeric antibody 057; not shown: human kappa light chain constant region (pcDNA3.4-hIgGk vector)) VH: QVQLQQSGAELARPGASVKLSCKASGFSFTSYGINWVKQRTGQGLEWIGEIYPRSGNTYYNEKLKGEATLTADRSSSTAYMELRSLTSEDSAVYFCARGGTYDGYYYAMDYWGQGTSVTVSS VL: NIVLTQSPASLAVSLGQRATISCRASESVDNFGSSFMHWYQQKPGQAPKLLIYRASNLESGIPARFGGSGSGTDFTLTIDPVETDDVATYYCQQVNKDPRTFGGGTKLEIK , please.
Data returned: 1.4
